Catalogue of compounds with associated log10 EC50
Tested on: HIV-IIIb IN T174I DE
Assay: Antiviral assay in MT4 cells, HIV-IIIb IN T174I DE virus (from dose escalation passaging)
Format: cell-based, HIV-1
Conditions: Human immunodeficiency virus 1, IIIB, MT4, 120 h, read-out: T174I DE EC50, MT4 cells, HIV-IIIb IN T174I DE (dose escalation), 5 days, CellTiter-Glo
On a log10 scale: recorded EC50, unit nM.

Sample records with log10 EC50:
1) Cc1cc2nc(-c3ccc4c(c3)c(N3CCN(CC5CC5)CC3)nn4C)sc2c(-c2ccc(Cl)cc2)c1[C@H](OC(C)(C)C)C(=O)O [Compound 100]	3.56
2) Cc1cc2nc(-c3ccc4c(c3)c(C3CCN(C5CCOC5)CC3)nn4C)sc2c(-c2ccc(Cl)cc2)c1[C@H](OC(C)(C)C)C(=O)O (stereo in doubt) [Compound 27]	2.39
3) Cc1cc2nc(-c3ccc4c(c3)c(C3CCN(C5COC5)C3)nn4C)sc2c(-c2ccc(Cl)cc2)c1[C@H](OC(C)(C)C)C(=O)O (stereo partly drawn) [Compound 70]	2.97
4) Cc1cc2nc(-c3cnc4c(c3)c(N3CCN(C5COC5)CC3)nn4C)sc2c(-c2ccc(Cl)cc2)c1[C@H](OC(C)(C)C)C(=O)O [Compound 112]	3.32
5) CC(=O)N1CC(N2CCC(c3cn(C)c4ncc(-c5nc6cc(C)c([C@H](OC(C)(C)C)C(=O)O)c(-c7ccc(Cl)cc7)c6s5)nc34)CC2)C1 [Compound 200]	2.38

Please turn your attention to the following entry.
Task item: Which log10 EC50 value is on record for CC(=O)N1CC[C@@H]1CN1CCC(c2nn(C)c3ccc(-c4nc5cc(C)c([C@H](OC(C)(C)C)C(=O)O)c(-c6ccc(Cl)cc6)c5s4)cc23)CC1 [Compound 148] ?
Reply: 2.30

* * *

Tested on: HIV-IIIb (wildtype)
Experiment: Antiviral assay in MT4 cells, HIV-IIIb wildtype
Type: cell-based, HIV-1
Conditions: Human immunodeficiency virus 1, IIIB, MT4, 120 h, read-out: WT EC50
Catalogue of compounds with associated pEC50
In plain terms, pEC50 is the concentration in mol/L turned into minus its base-10 logarithm.

Sample records with pEC50:
1. CCn1nc2ccc(-c3nc4cc(C)c([C@H](OC(C)(C)C)C(=O)O)c(-c5ccc(Cl)cc5)c4s3)cc2c1C1CCN(C2COC2)CC1 [Compound 36]	7.85
2. COC(=O)N1CC(N2CCC(c3nn(C)c4ncc(-c5nc6cc(C)c([C@H](OC(C)(C)C)C(=O)O)c(-c7ccc(Cl)cc7)c6s5)cc34)CC2)C1 [Compound 114]	7.92
3. Cc1cc2nc(-c3ccc4c(c3)c(C3CN(C(C)(C)C)C3)nn4C)sc2c(-c2ccc(Cl)cc2)c1[C@H](OC1CC1)C(=O)O [Compound 60]	7.51

Task item: Which pEC50 value is on record for Cc1cc2nc(-c3cnc4c(c3)c(N3CCN(C(C)C)CC3)nn4C)sc2c(-c2ccc(Cl)cc2)c1[C@H](OC(C)(C)C)C(=O)O [Compound 111] ?
Reply: 8.30

Task item: // same read-out, input: [2H]C([2H])([2H])n1nc(C2CCN(C3COC3)CC2)c2cc(-c3nc4cc(C)c([C@H](OC(C)(C)C)C(=O)O)c(-c5ccc(Cl)cc5)c4s3)ccc21 [Compound 40]
Reply: 8.00

Task item: // same read-out, input: CC(=O)N1CC[C@H]1CN1CCC(c2nn(C)c3ccc(-c4nc5cc(C)c([C@H](OC(C)(C)C)C(=O)O)c(-c6ccc(Cl)cc6)c5s4)cc23)CC1 [Compound 151]
Reply: 7.80
